Numbers sourced from ChEMBL document CHEMBL1127566.

System: folylpolyglutamate synthase (FPGS)
Assay Overview: Km of Hog folyl-poly-glutamate synthase (FPGS) relative to aminopterin
Parameters: species or system Sus scrofa
Condition Set: pig, hog folylpolyglutamate synthase (FPGS) enzyme
Endpoint Name: Km (µM)

>>> meas_value("Nc1nc2c(c(=O)[nH]1)C[C@@H](CCc1ccc(C(=O)N[C@@H](CCC(=O)O)C(=O)O)cc1)CN2 [LOMETREXOL]")
17.5

---

Measured IC50, listed per entry for reference.
Tested on: MCF7
Assay Overview: Ability to inhibit growth of MCF-7 human breast adenocarcinoma in vitro
Format: functional, cell-based
Endpoint Name: IC50 (µM)

>>> meas_value("Nc1nc2c(c(=O)[nH]1)C[C@@H](CCc1ccc(C(=O)N[C@@H](CCC(=O)O)C(=O)O)cc1)CN2 [LOMETREXOL]")
0.018
>>> meas_value("Nc1nc(N)c(CCCNc2cnc(C(=O)N[C@@H](CCC(=O)O)C(=O)O)s2)c(O)n1")
0.004
>>> meas_value("Nc1nc(N)c(CCCNc2ccc(C(=O)N[C@@H](CCC(=O)O)C(=O)O)cc2)c(O)n1")
0.037
>>> meas_value("Nc1nc(N)c(CCCNc2ccc(C(=O)N[C@@H](CCC(=O)O)C(=O)O)s2)c(O)n1")
0.038
